# SUBJECT OF TEST: Recombinant human aurora B protein (Homo sapiens)
# Sequence (Q96GD4 whole entry): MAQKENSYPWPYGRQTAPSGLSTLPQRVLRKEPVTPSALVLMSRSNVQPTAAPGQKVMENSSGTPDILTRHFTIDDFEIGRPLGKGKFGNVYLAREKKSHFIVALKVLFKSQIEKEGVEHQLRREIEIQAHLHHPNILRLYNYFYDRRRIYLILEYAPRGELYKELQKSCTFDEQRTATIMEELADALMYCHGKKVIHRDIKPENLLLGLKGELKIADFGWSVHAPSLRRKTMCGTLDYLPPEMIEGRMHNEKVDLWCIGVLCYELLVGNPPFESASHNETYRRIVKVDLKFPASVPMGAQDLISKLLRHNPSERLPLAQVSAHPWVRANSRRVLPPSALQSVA
# EXPERIMENT NOTES: Cell-free aurora kinase assay (ADP-Glo)
# ASSAY CONDITIONS: myelin basic protein substrate, read-out: Aurora Kinase B Inhibition (IC50)
METRIC: IC50

# COMPOUND, METRIC, RESULT
data = [
    ("CCOC(=O)c1cn2cc(-c3ccc4ncn(Cc5ncccn5)c(=O)c4c3)ccc2n1 [BIQO-19]", "IC50", "581 nM"),
]

====

# System: HCC827-gef cells
# EXPERIMENT NOTES: SRB cell proliferation assay
# ASSAY CONDITIONS: Homo sapiens, 72 h, read-out: IC50 value, HCC827-gef
compounds and their reported IC50
METRIC: IC50 (µM)

# COMPOUND, RESULT NUMBER
measured = [
    ("CCOC(=O)c1cn2cc(-c3ccc4ncn(Cc5ncccn5)c(=O)c4c3)ccc2n1 [BIQO-19]", 4.43),
    ("CCC(=O)Nc1nc2ccc(-c3ccc4ncn(CCc5cc6ccccc6[nH]5)c(=O)c4c3)cc2[nH]1 [FL-4, reference compound]", 6.4),
]

====

compounds and their reported pIC50
# Tested on: PC9 cells
# EXPERIMENT NOTES: SRB cell proliferation assay
# ASSAY CONDITIONS: Homo sapiens, PC-9, 72 h, read-out: IC50 value, PC9
pIC50: −log10 of the molar value.
METRIC: pIC50

# COMPOUND, METRIC, RESULT NUMBER
measured = [
    ("CCOC(=O)c1cn2cc(-c3ccc4ncn(Cc5ncccn5)c(=O)c4c3)ccc2n1", "pIC50", 4.78),
    ("CCC(=O)Nc1nc2ccc(-c3ccc4ncn(CCc5cc6ccccc6[nH]5)c(=O)c4c3)cc2[nH]1 [FL-4, reference compound]", "pIC50", 4.83),
]

====

molecules and their reported IC50
# System: HCC827 cells
# EXPERIMENT NOTES: SRB cell proliferation assay
# ASSAY CONDITIONS: Homo sapiens, HCC827, 72 h, read-out: IC50 value, HCC827

# MOLECULE, IC50
data = [
    ("CCOC(=O)c1cn2cc(-c3ccc4ncn(Cc5ncccn5)c(=O)c4c3)ccc2n1 [BIQO-19]", "4.84 µM"),
    ("CCC(=O)Nc1nc2ccc(-c3ccc4ncn(CCc5cc6ccccc6[nH]5)c(=O)c4c3)cc2[nH]1 [FL-4, reference compound]", "4.14 µM"),
]
